# assayed.target: MERTK (UniProt Q12866)
# Sequence (Q12866 whole entry, looked up): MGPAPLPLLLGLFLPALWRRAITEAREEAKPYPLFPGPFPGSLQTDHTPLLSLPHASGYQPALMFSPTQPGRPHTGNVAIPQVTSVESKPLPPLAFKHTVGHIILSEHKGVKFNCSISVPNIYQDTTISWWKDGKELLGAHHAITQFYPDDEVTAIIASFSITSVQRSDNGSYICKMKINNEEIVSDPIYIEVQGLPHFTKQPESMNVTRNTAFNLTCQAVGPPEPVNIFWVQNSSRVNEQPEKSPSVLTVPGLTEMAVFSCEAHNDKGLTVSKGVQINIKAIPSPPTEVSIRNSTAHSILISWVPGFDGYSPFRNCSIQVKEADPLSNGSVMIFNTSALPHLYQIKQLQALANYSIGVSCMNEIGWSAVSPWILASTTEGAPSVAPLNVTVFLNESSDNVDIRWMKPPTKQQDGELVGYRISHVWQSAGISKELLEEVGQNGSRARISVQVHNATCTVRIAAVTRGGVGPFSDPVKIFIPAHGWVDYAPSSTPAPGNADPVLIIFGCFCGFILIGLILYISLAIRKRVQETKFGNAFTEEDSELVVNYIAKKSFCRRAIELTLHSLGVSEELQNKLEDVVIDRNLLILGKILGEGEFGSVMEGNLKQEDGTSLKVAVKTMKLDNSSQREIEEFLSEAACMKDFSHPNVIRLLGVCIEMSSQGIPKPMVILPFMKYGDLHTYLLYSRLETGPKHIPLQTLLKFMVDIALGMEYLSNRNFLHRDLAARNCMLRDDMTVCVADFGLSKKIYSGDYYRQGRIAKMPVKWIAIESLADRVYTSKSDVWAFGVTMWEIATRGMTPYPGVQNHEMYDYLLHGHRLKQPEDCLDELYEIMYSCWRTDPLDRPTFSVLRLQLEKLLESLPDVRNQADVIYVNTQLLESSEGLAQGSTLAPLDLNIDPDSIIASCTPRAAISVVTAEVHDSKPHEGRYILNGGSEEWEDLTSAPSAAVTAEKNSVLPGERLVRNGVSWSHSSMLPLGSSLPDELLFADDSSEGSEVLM
# assay.info: phosphorylation enrichment, bacterial display (enrichment ratio); higher = better substrate or ligand; peptides without Tyr show the background;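 further: 11-residue human phosphosite peptides and single-mutation variants displayed on the E. coli surface, counted by deep sequencing, each peptide's frequency after selection divided by its frequency in the unselected input library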;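 further: frequency after pTyr selection over input frequency; kinase dosed for 20-30% of maximal phosphorylation in three min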
# reported phosphorylation enrichment; entries follow
Output: the number by itself.

CPTIHYNYMCN [TP53_Y234_T230P] | 0.462
LHVGFYESDVM [A2M_Y708_R704H] | 1.15
QHVPDYRQNGF [PCDHGA1_Y890_V894G_YF] | 0.464
ARRMEYLASQK [FGFR2_Y616_G613R] | 0.402

Request: Give phosphorylation enrichment for the following sequence: GMEIVYVFVKK [DNAI2_Y5_YF]
Response: 0.481

Request: Give phosphorylation enrichment for the following sequence: ECIEFYELDKK [PMM2_Y145_R141C]
Response: 0.485

Request: Give phosphorylation enrichment for the following sequence: STTSDYQWDVS [MTDH_Y364]
Response: 0.387

Request: Give phosphorylation enrichment for the following sequence: SSDPDYRAAVD [GLB1_Y154_L155R]
Response: 0.471

Request: Give phosphorylation enrichment for the following sequence: LSIQCYLRALD [HMGCS2_Y262]
Response: 0.802

Request: Give phosphorylation enrichment for the following sequence: PPKFFYTRKLL [CYBB_Y41]
Response: 0.766

Request: Give phosphorylation enrichment for the following sequence: DRSSLYLVAGP [KIAA1614_Y1083_N1078D]
Response: 1.33

Request: Give phosphorylation enrichment for the following sequence: CFSSEYHFVGG [CTSC_Y345_Y340C_YF]
Response: 2.02

Request: Give phosphorylation enrichment for the following sequence: ITGNGYYFRVF [MYBPC3_Y1135_I1131T]
Response: 0.294

----------
# assayed.target: FGFR3 (UniProt P22607)
# Sequence (P22607 whole entry, looked up): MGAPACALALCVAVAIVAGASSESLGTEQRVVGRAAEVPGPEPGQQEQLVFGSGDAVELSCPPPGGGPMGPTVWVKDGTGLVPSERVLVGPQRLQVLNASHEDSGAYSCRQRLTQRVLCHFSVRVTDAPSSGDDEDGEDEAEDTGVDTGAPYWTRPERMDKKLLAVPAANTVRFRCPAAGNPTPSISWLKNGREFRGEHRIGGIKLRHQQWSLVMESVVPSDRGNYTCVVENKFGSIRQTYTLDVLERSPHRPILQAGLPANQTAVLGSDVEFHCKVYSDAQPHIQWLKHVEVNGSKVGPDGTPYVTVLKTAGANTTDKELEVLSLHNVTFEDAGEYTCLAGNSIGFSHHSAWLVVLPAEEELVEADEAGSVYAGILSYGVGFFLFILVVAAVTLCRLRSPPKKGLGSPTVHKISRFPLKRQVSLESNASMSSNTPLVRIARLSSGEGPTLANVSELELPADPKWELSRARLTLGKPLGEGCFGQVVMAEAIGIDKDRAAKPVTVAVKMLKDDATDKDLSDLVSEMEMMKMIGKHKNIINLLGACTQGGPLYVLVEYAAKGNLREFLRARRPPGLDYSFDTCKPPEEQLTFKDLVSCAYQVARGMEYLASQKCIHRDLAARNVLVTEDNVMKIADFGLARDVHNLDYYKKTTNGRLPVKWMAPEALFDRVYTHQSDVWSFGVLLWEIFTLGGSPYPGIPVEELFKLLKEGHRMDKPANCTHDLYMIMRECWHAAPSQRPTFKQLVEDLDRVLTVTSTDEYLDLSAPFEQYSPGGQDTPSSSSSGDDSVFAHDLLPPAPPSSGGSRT
# assay.info: phosphorylation enrichment, bacterial display (enrichment ratio); higher = better substrate or ligand; peptides without Tyr show the background
# reported phosphorylation enrichment; entries follow
Output: the number by itself.

Before answering, review these 2 worked examples.
ERWLKYFPIEQ [HS3ST5_Y244] | 0.798
EAESWYQTKYE [KRT75_Y342] | 0.752

Request: Give phosphorylation enrichment for the following sequence: ITNHIYTWVDP [DFNB31_Y234_V229I]
Response: 2.95

Request: Give phosphorylation enrichment for the following sequence: TVSTGYTQPQP [SARG_Y259_R258G]
Response: 0.629

Request: Give phosphorylation enrichment for the following sequence: LFDPDFMKVIL [CYP4A22_Y104_Y104F_YF]
Response: 1.86

Request: Give phosphorylation enrichment for the following sequence: DDLEVYLKHLL [SACS_Y3477]
Response: 0.697

Request: Give phosphorylation enrichment for the following sequence: TARWEYMHSPS [CPOX_Y429]
Response: 0.69

----------
# assayed.target: Fyn (UniProt P06241)
# Sequence (P06241 whole entry, looked up): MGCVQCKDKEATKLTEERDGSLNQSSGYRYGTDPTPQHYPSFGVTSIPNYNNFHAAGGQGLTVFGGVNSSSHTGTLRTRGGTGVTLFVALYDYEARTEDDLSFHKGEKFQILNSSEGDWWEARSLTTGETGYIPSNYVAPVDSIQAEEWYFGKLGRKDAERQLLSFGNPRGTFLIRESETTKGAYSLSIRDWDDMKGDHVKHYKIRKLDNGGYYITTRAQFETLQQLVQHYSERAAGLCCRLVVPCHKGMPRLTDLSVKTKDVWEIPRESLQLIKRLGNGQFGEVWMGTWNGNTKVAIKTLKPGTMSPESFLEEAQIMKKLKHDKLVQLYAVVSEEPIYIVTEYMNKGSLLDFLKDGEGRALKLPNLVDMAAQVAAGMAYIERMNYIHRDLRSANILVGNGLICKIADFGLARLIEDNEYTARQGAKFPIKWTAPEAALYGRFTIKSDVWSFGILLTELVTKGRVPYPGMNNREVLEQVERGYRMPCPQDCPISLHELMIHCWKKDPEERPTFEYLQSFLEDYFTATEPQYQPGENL
# assay.info: phosphorylation enrichment, bacterial display (enrichment ratio); higher = better substrate or ligand; peptides without Tyr show the background
Lab note: anything with phosphorylation enrichment at or over 0.6 counts as class 1; the rest go in class 0.

KKGIVYIFNGR [ITGAV_Y404] | class 0
VKRNRYKDILP [PTPN12_Y64_K61R] | class 1
YQGGTYSKAST [FGG_Y380] | class 0
CTTIHYNFICN [TP53_Y234_M237I_YF] | class 0
KKFPDYIQIAR [SGMS2_Y59_M64R_YF] | class 0

Request: Would you say ASSPVYVPTTR [GATA6_Y188] shows phosphorylation enrichment at minimum 0.6?
Response: class 0

Request: Would you say HTEGEYSSLEH [IDH3B_Y171_Q166H] shows phosphorylation enrichment at minimum 0.6?
Response: class 1

Request: Would you say SHMVNYQPYRK [TEX37_Y25_D24N] shows phosphorylation enrichment at minimum 0.6?
Response: class 0

Request: Would you say FLENFYDLEKD [MMP3_Y42_K45E_YF] shows phosphorylation enrichment at minimum 0.6?
Response: class 1

Request: Would you say SVTCTSSPALN [TP53_Y126_Y126S] shows phosphorylation enrichment at minimum 0.6?
Response: class 0

Request: Would you say MKKKIYAMGGG [GAN_Y424] shows phosphorylation enrichment at minimum 0.6?
Response: class 0

Request: Would you say ADRNHYRRYRR [YBX1_Y145_P149R] shows phosphorylation enrichment at minimum 0.6?
Response: class 0

Request: Would you say GSESDYIIMPN [SCARB1_Y133_V135I] shows phosphorylation enrichment at minimum 0.6?
Response: class 0

Request: Would you say VDLIVYLRTNP [TK2_Y181] shows phosphorylation enrichment at minimum 0.6?
Response: class 0

Request: Would you say HKGASYAFRLS [PTPRD_Y891_V892A] shows phosphorylation enrichment at minimum 0.6?
Response: class 1

Request: Would you say FFHCTYKKRMI [CLEC12A_Y242_YF] shows phosphorylation enrichment at minimum 0.6?
Response: class 0
